Origin of measurements: PubChem BioAssay (NCI)

Tested on: BT-549 breast
Assay: NCI tumour cell line growth inhibition, 48 h
A collection of molecules and their measured TGI
readout_kind: TGI

{"molecule": "COP(=O)(OC)C1=c2c(C)noc2=C2C=COC2C1=O (stereo not drawn)", "data_value": "> 100 µM"}
{"molecule": "CCOC(=S)SCC(=O)O", "data_value": "> 100 µM"}
{"molecule": "O=c1[nH]c(=S)[nH]c2c1C(c1ccc([N+](=O)[O-])cc1)c1c([nH]c(=S)[nH]c1=O)O2", "data_value": "> 100 µM"}

---

Listed next: entries and their corresponding TGI.
Tested on: SR leukemia
Experiment: NCI tumour cell line growth inhibition, 48 h
readout_kind: TGI

{"smiles_record": "O=S(=O)(c1ccccc1)N1CCN(S(=O)(=O)c2ccccc2)c2ccccc21", "data_value": "> 100 µM"}
{"smiles_record": "C[C@]12CC[C@H](O)CC1=CC[C@@H]1[C@@H]2CC[C@]2(C)C(=N/N)/C(=N\\O)C[C@@H]12", "data_value": "> 100 µM"}
{"smiles_record": "CC(=O)Nc1nc(NC(C)=O)c2[nH]c(CO)nc2n1", "data_value": "> 100 µM"}
